System: MCF7 breast
Assay: NCI-60 one-dose screen, 48 h
Conditions: 10 µM unless noted
Method: Growth inhibition of the MCF7 human tumor cell line is measured as a screen for anti-cancer activity. Cells are grown in 96 well plates and exposed to the test compound for 48 hours. Compounds are tested at a single concentration, which is 10^-5 M for most compounds. The reported endpoint is percent growth (GI% or GIPRCNT), where numbers from 0 - 100% represent growth inhibition, and numbers from -100% - 0 represent cell death. For example, a value of 40 represents 60% growth inhibition. […]
About 83,000 compounds went through this panel and 20% of them were active in at least one assay; those are over-represented in the sample as a whole. Active and inactive are the calls of the source. How the source made its calls: active means growth percent below 10; inactive means the rest.
Hello, when you answer, please use one of the following outcomes: 1 (yes) for active, 0 (no) for inactive

Examples with answers:
COc1ccc(C(=O)COc2cccc(/C=C3\CSc4ccccc4C3=O)c2)cc1
1 (yes)
Cn1c(=O)[nH]c(=O)c2nc(CCC(=O)NCCC(=O)O)c(=O)[nH]c21
0 (no)
COc1ccc2c(c1)CC/C(=C\c1cncc(Br)c1)C2=O
0 (no)
COc1ccc(CN2c3ccccc3Sc3ccccc32)cc1O
0 (no)
Cc1cc2nc(NC(=O)CN3CCN(CCN4C(=O)c5cccc6cccc(c56)C4=O)CC3)sc2cc1C
0 (no)

## Input Check the results log: what was the call for COc1ccc(-c2nc3ccc(-c4nc5ccc(N6CCN(c7ccccc7)CC6)cc5[nH]4)cc3[nH]2)cc1OC ?
## Output 1 (yes)

## Input Can you handle C=C(C)C1CC(O)C2(C)CCCC3C2C1CC(C)C3(C)CC/C(C)=C/C(O)C1CCC(=O)c2c(OC)cc(OC)cc21 (centres undefined) next?
## Output 0 (no)

## Input Another compound to look at: N#CCCN=Nc1c(O)[nH]c2ccc([N+](=O)[O-])cc12
## Output 0 (no)

## Input Moving on to the next compound: CCCCCC(=O)Oc1ccc(/C(=C(\C)c2ccc(OC)cc2)c2ccc(OCCN3CCCCC3)cc2)cc1
## Output 0 (no)

====

System: SNB-75 CNS
Assay: NCI-60 one-dose screen, 48 h (100 = growth as untreated, 0 = no growth, -100 = all killed)
Conditions: 10 µM unless noted
The panel holds about 83,000 compounds, 20% with a hit somewhere; the sample as a whole holds those more often.
measurement kind: growth (%)
A number alone suffices; assume %.

CCCCCC(=O)Oc1ccc(/C(=C(\C)c2ccc(OC)cc2)c2ccc(OCCN3CCCCC3)cc2)cc1
64
O=C1c2cc3c(cc2-c2c1c1ccc(Cl)cc1c(=O)n2CCCN1CCOCC1)OCO3
84.2
COc1ccc(/C=N/C2=C(C#N)C(c3ccc(N(C)C)cc3)c3ccc4ccccc4c3O2)cc1 (centres undefined)
-7.87
N#CN1CC[C@H](C(=O)Nc2cc3cc(C(N)=O)ccc3cn2)C1
-28.4
CCn1c(Cc2ccccc2Nc2c(Cl)cccc2Cl)nnc1SCC(=O)NN1C(=O)/C(=C/c2cc(OC)c(O)c(OC)c2)SC1=S
2.65

## Input # input compound: COc1cccc(-c2nc3sccn3c2-c2ccnc(NCCCNS(=O)(=O)c3c(Cl)cccc3Cl)c2)c1 ; wanted: its growth
## Output 73

## Input Okay, and O=C1NC(=Nc2ccc(O)cc2)S/C1=C\c1cccc(Cl)c1 ?
## Output 70.9

## Input Another compound to look at: COc1ccc(-c2nc3ccc(-c4nc5ccc(N6CCN(c7ccccc7)CC6)cc5[nH]4)cc3[nH]2)cc1OC
## Output 45.6

## Input Record: CCC#CC[C@H](O)C/C=C1/C(=O)C=C[C@@H]1C/C=C\CCCC(=O)OC
## Output 43.5

====

Let's look at some compounds and their measured growth.
Test system: BT-549 breast
Experiment: NCI-60 one-dose screen, 48 h (100 = growth as untreated, 0 = no growth, -100 = all killed)
Conditions: 10 µM unless noted
The panel holds about 83,000 compounds, 20% with a hit somewhere; the sample as a whole holds those more often. Calls of active or inactive are those of the source. How the source made its calls: active means growth percent below 10; inactive means the rest.

Illustrative cases are given below, each with its answer.
Cc1cc(C)nc(SC2=C(Nc3ccc(C)c(Cl)c3)C(=O)N(Cc3ccccc3)C2=O)n1
51.6% [30 µM] (inactive)
C=CC(=O)Nc1cccc(Nc2nc(SC)nc(-c3cccc([N+](=O)[O-])c3)c2C#N)c1
58.4% (inactive)
O=c1ccccc(-c2ccc(Br)cc2)c1O
23.8% (inactive)
CCCCCCN(CCCCCC)C(=N)c1ccnc2ccccc12
73.8% (inactive)
CC1=C/C(=C(\c2ccc(N(C)C)cc2)c2ccc([N+](C)(C)C)cc2)C=CC1=[N+](C)C
96.1% (inactive)
C=C(C)[C@@H]1CC[C@]2(C(=O)OC)CC[C@]3(C)[C@H](CC[C@@H]4[C@@]5(C)C/C(=C/c6cccc(I)c6)C(=O)C(C)(C)[C@@H]5CC[C@]43C)[C@@H]12
101% (inactive)

## Input Name the reported growth value associated with the compound O=Nc1c(O)c(Cl)cc2ccccc12
## Output 83.7% (inactive)

## Input Also check CCOC(=O)n1cc(-c2nonc2-c2cn(C)c3ncccc23)c2ccccc21
## Output 87.9% (inactive)

## Input Note, next up: O=C(/C=C/c1cccc(Cl)c1)c1ccc(O)c(CN2CCN(c3cc4c(cc3F)c(=O)c(C(=O)O)cn4C3CC3)CC2)c1
## Output 34% (inactive)

====

Test system: MCF7 breast
Assay: NCI-60 one-dose screen, 48 h
Conditions: 10 µM unless noted
Procedure: Growth inhibition of the MCF7 human tumor cell line is measured as a screen for anti-cancer activity. Cells are grown in 96 well plates and exposed to the test compound for 48 hours. Compounds are tested at a single concentration, which is 10^-5 M for most compounds. The reported endpoint is percent growth (GI% or GIPRCNT), where numbers from 0 - 100% represent growth inhibition, and numbers from -100% - 0 represent cell death. For example, a value of 40 represents 60% growth inhibition. […]
About 83,000 compounds went through this panel and 20% of them were active in at least one assay; those are over-represented in the sample as a whole. Active and inactive are the calls of the source. How the source made its calls: active means growth percent below 10; inactive means the rest.
Permitted responses: 1 (yes) = active, 0 (no) = inactive

CSc1nc(-c2cccc(NC(=O)CCl)c2)c(C#N)c(=O)n1C
0 (no)
CC(=O)O[C@H]1C(=O)[C@@]2(C)[C@H]([C@H](OC(=O)c3ccccc3)[C@]3(O)C[C@H](OC(=O)[C@H](OC(=O)CCC(=O)OC4CCC(S/N=C(N)/N=C(\N)N(C)C)CC4)[C@@H](NC(=O)c4ccccc4)c4ccccc4)C(C)=C1C3(C)C)[C@]1(OC(C)=O)CO[C@@H]1C[C@@H]2O (some centres not stated)
0 (no)
Cn1cccc1-c1nc2c3c(ccc2[nH]1)C(=O)c1ccccc1C3=O
0 (no)

## Input Write down the call the test reported for this molecule. Item: COc1ccc(/C=C(\C#N)C(=O)Nc2cccc(Nc3nc(SC)nc(-c4cccc([N+](=O)[O-])c4)c3C#N)c2)cc1OC
## Output 0 (no)

## Input And then CC(=O)c1nc2ccccc2n1CC(=O)c1cccc(Cl)c1 , what is it?
## Output 1 (yes)

## Input Could you do the same for O=C1/C(=C/C(Cl)=C/c2ccccc2)SC(=S)N1CCc1ccc(O)cc1 , please?
## Output 0 (no)

## Input Follow-up item: O=C(CN(C(=O)Cn1c(=O)n2nnnc2c2ccccc21)c1ccccc1C(F)(F)F)Nc1ccc(C(F)(F)F)cc1
## Output 0 (no)

====

Known growth of a selection of molecules
Tested on: SNB-75 CNS
Test: NCI-60 one-dose screen, 48 h (100 = growth as untreated, 0 = no growth, -100 = all killed)
Details: 10 µM unless noted
The panel holds about 83,000 compounds, 20% with a hit somewhere; the sample as a whole holds those more often.
Kindly provide the numeric value in % only, without the unit symbol.

Some entries whose results are on file:
O=C(Cc1ccc(/C=C/C(=O)c2ncc[nH]2)cc1)Nc1ccc(F)cc1
20.4
COc1ccc(C(=O)c2sc3nc4c(c(-c5cccnc5)c3c2N)CCCC4)cc1OC
56.4
O=S(=O)(Nc1ccc(Cl)c(F)c1)c1ccc(-c2cnc(C3CC3)o2)cc1
-7.32

## Input Using the record for CC(C)C1=C[C@@]23CC[C@@H]4[C@](C)(CCC[C@@]4(C)C(=O)N4CCCNCC4)[C@H]2C[C@@H]1[C@H]1C(=O)CCC(=O)[C@H]13 , report its growth.
## Output 63.5

## Input // same read-out, input: O=c1ccccc(-c2ccc(-c3ccco3)cc2)c1O
## Output 38.8

## Input Here is the next molecule: CC[C@@H](C(=O)[C@@H](C)[C@@H](O)[C@H](C)[C@@H]1O[C@@H]([C@@H](CC)C(=O)O)CC[C@@H]1C)[C@H]1OC2(C=C[C@@H](O)[C@]3(CC[C@@](C)([C@H]4CC[C@](O)(CC)[C@H](C)O4)O3)O2)[C@H](C)C[C@@H]1C (stereo partly specified)
## Output -28.8

## Input Next: CC1=C/C(=C(\c2ccc(N(C)C)cc2)c2ccc([N+](C)(C)C)cc2)C=CC1=[N+](C)C
## Output 80.5
